Provenance of the data: BigSolDB 2.1

Settings: in water, 303.15 K
Recorded Endpoint: solubility (mole fraction)
# output: bare number, no unit

**Query** Need solubility (mole fraction) of "COc1cc([N+](=O)[O-])ccc1N" , thanks.
**Result** 1.74e-05

----------
Settings: in isopropanol, 283.15 K
Recorded Endpoint: solubility (mole fraction)
# output: bare number, no unit

**Query** Need solubility (mole fraction) of "COc1cc([N+](=O)[O-])ccc1N" , thanks.
**Result** 0.00221

----------
Settings: in water, 298.15 K
Recorded Endpoint: solubility (mole fraction)
# output: bare number, no unit

**Query** Need solubility (mole fraction) of "COc1cc([N+](=O)[O-])ccc1N" , thanks.
**Result** 1.27e-05

----------
Settings: in isopropanol, 323.15 K
Recorded Endpoint: solubility (mole fraction)
# output: bare number, no unit

**Query** Need solubility (mole fraction) of "COc1cc([N+](=O)[O-])ccc1N" , thanks.
**Result** 0.0101

----------
Details: in water, 318.15 K
Recorded Endpoint: solubility (mole fraction)
# output: bare number, no unit

**Query** Need solubility (mole fraction) of "COc1cc([N+](=O)[O-])ccc1N" , thanks.
**Result** 4.23e-05

----------
Conditions: in isopropanol, 308.15 K
Recorded Endpoint: solubility (mole fraction)
# output: bare number, no unit

**Query** Need solubility (mole fraction) of "COc1cc([N+](=O)[O-])ccc1N" , thanks.
**Result** 0.00595

----------
Conditions: in isopropanol, 298.15 K
Recorded Endpoint: solubility (mole fraction)
# output: bare number, no unit

**Query** Need solubility (mole fraction) of "COc1cc([N+](=O)[O-])ccc1N" , thanks.
**Result** 0.00396

----------
Conditions: in isopropanol, 288.15 K
Recorded Endpoint: solubility (mole fraction)
# output: bare number, no unit

**Query** Need solubility (mole fraction) of "COc1cc([N+](=O)[O-])ccc1N" , thanks.
**Result** 0.00265

----------
Conditions: in water, 308.15 K
Recorded Endpoint: solubility (mole fraction)
# output: bare number, no unit

**Query** Need solubility (mole fraction) of "COc1cc([N+](=O)[O-])ccc1N" , thanks.
**Result** 2.36e-05

----------
Conditions: in isopropanol, 278.15 K
Recorded Endpoint: solubility (mole fraction)

**Query** Need solubility (mole fraction) of "COc1cc([N+](=O)[O-])ccc1N" , thanks.
**Result** 0.00186

----------
Conditions: in water, 293.15 K
Recorded Endpoint: solubility (mole fraction)
# output: bare number, no unit

**Query** Need solubility (mole fraction) of "COc1cc([N+](=O)[O-])ccc1N" , thanks.
**Result** 9.49e-06

----------
Details: in isopropanol, 313.15 K
Recorded Endpoint: solubility (mole fraction)
# output: bare number, no unit

**Query** Need solubility (mole fraction) of "COc1cc([N+](=O)[O-])ccc1N" , thanks.
**Result** 0.00719

----------
Settings: in water, 283.15 K
Recorded Endpoint: solubility (mole fraction)
# output: bare number, no unit

**Query** Need solubility (mole fraction) of "COc1cc([N+](=O)[O-])ccc1N" , thanks.
**Result** 5.68e-06

----------
Conditions: in water, 278.15 K
Recorded Endpoint: solubility (mole fraction)
# output: bare number, no unit

**Query** Need solubility (mole fraction) of "COc1cc([N+](=O)[O-])ccc1N" , thanks.
**Result** 4.03e-06
